# SYSTEM: human insulin (human) (UniProt P01308)
# PROCEDURE_SUMMARY: specificity phage ELISA
MEASUREMENT_LABEL: ELISA signal at 450 nm

The cases that follow already have their ELISA signal at 450 nm on record.
| BINDER | RESULT |
| --- | --- |
| Clone G37 (SX-surface), purified Fab (Fab, V domains shown) VH: EVQLVESGGGLVQPGGSLRLSCAASGFSIWWSWIHWVRQAPGKGLEWVASISPSSGWTSYADSVKGRFTISADTSKNTAYLQMNSLRAEDTAVYYCARWWSSAMDYWGQGTLVTVSS VL: DIQMTQSPSSLSASVGDRVTITCRASQDVNTAVAWYQQKPGKAPKLLIYSASSLYSGVPSRFSGSRSGTDFTLTISSLQPEDFATYYCQQWWWWPSTFGQGTKVEIK | 0.45 |
| G36 (Fab, V domains shown) VH: EVQLVESGGGLVQPGGSLRLSCAASGFSIWWSWIHWVRQAPGKGLEWVASISPSSGWTSYADSVKGRFTISADTSKNTAYLQMNSLRAEDTAVYYCARWSSSAFDYWGQGTLVTVSS VL: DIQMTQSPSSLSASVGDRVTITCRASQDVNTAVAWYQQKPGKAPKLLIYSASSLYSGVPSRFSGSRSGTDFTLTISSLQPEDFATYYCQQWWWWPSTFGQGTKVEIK | 0.29 |
| G40 (Fab, V domains shown) VH: EVQLVESGGGLVQPGGSLRLSCAASGFSIWWSWIHWVRQAPGKGLEWVASISPSSGWTSYADSVKGRFTISADTSKNTAYLQMNSLRAEDTAVYYCARWSSWGLDYWGQGTLVTVSS VL: DIQMTQSPSSLSASVGDRVTITCRASQDVNTAVAWYQQKPGKAPKLLIYSASSLYSGVPSRFSGSRSGTDFTLTISSLQPEDFATYYCQQWSWWPSTFGQGTKVEIK | 2.64 |
| G32 (Fab, V domains shown) VH: EVQLVESGGGLVQPGGSLRLSCAASGFSIWWSWIHWVRQAPGKGLEWVASISPSSGWTSYADSVKGRFTISADTSKNTAYLQMNSLRAEDTAVYYCARWWSSGMDYWGQGTLVTVSS VL: DIQMTQSPSSLSASVGDRVTITCRASQDVNTAVAWYQQKPGKAPKLLIYSASSLYSGVPSRFSGSRSGTDFTLTISSLQPEDFATYYCQQWWWWPWTFGQGTKVEIK | 0.48 |
| G29 (Fab, V domains shown) VH: EVQLVESGGGLVQPGGSLRLSCAASGFSIWWSWIHWVRQAPGKGLEWVASISPSSGWTSYADSVKGRFTISADTSKNTAYLQMNSLRAEDTAVYYCARWWSSAIDYWGQGTLVTVSS VL: DIQMTQSPSSLSASVGDRVTITCRASQDVNTAVAWYQQKPGKAPKLLIYSASSLYSGVPSRFSGSRSGTDFTLTISSLQPEDFATYYCQQSWWWPWTFGQGTKVEIK | 0.26 |
| G31 (Fab, V domains shown) VH: EVQLVESGGGLVQPGGSLRLSCAASGFSIWWSWIHWVRQAPGKGLEWVASIYPSSGYTSYADSVKGRFTISADTSKNTAYLQMNSLRAEDTAVYYCARWWSSALDYWGQGTLVTVSS VL: DIQMTQSPSSLSASVGDRVTITCRASQDVNTAVAWYQQKPGKAPKLLIYSASSLYSGVPSRFSGSRSGTDFTLTISSLQPEDFATYYCQQSWWSPSTFGQGTKVEIK | 0.22 |

Challenge: Specify measured ELISA signal at 450 nm for G35 (Fab, V domains shown) VH: EVQLVESGGGLVQPGGSLRLSCAASGFSISWSWIHWVRQAPGKGLEWVASIWPSSGWTSYADSVKGRFTISADTSKNTAYLQMNSLRAEDTAVYYCARWWSSALDYWGQGTLVTVSS VL: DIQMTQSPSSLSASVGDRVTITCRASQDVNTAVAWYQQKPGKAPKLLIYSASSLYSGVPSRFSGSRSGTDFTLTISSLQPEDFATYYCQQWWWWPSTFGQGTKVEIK .
Response given: 0.37
